Reference source: patent US20110081348A1

# TARGET_OF_ASSAY: recombinant truncated ILV34 (Aspergillus fumigatus, UniProt Q4X099)
# Sequence (Q4X099 30-606): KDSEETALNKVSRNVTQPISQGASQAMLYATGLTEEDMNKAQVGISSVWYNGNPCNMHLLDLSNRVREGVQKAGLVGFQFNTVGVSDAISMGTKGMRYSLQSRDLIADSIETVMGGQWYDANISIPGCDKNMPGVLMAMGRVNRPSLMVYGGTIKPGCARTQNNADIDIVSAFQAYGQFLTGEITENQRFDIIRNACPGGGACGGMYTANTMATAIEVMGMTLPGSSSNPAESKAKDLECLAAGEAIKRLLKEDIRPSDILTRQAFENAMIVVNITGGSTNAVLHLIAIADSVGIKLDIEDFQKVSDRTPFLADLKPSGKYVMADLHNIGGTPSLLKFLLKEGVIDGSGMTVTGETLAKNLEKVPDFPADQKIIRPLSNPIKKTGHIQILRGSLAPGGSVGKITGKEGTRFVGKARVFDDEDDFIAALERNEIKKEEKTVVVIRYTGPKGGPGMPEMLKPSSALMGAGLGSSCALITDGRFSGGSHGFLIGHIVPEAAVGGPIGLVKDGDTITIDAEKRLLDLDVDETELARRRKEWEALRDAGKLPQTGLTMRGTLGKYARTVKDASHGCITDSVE
# METHOD: biochemical
MEASUREMENT_LABEL: IC50

Q) Name the reported IC50 value associated with the compound CC(C)C(O)C(=O)O (stereo not shown) [2-hydroxy-3-methylbutyric acid]
A) ~10 mM
